Value source: patent US4933347A

- System: Pneumocystis carinii
- assayProtocol: Treatment of Pneumocystis carinii pneumonia in Sprague-Dawley rats (extent of disease by histologic score)
- Format: in vivo, male Sprague-Dawley rats
- conditionsUsed: 10 mg/kg i.v. daily, 14 days; 3 = scattered cysts, 10-50% of lung involved with some intense areas of infection
measuredEndpoint: Extent of Disease by Histologic Score: number of animals with score 3 (animals)

[
  {
    "compound": "c1cc(C2=NCCN2)ccc1OCCCCCOc1ccc(C2=NCCN2)cc1 [Example 30]",
    "assayedTarget": "Pneumocystis carinii",
    "unitDescriptor": "animals",
    "valueReported": 0
  },
  {
    "compound": "N=C(N)c1cccc(OCCCOc2cccc(C(=N)N)c2)c1 [Example 26]",
    "assayedTarget": "Pneumocystis carinii",
    "unitDescriptor": "animals",
    "valueReported": 1
  },
  {
    "compound": "N=C(N)c1ccc(NCCCCCNc2ccc(C(=N)N)cc2)cc1 [Example 17]",
    "assayedTarget": "Pneumocystis carinii",
    "unitDescriptor": "animals",
    "valueReported": 1
  },
  {
    "compound": "N=C(N)c1cccc(OCCCCCCOc2cccc(C(=N)N)c2)c1 [Example 29]",
    "assayedTarget": "Pneumocystis carinii",
    "unitDescriptor": "animals",
    "valueReported": 2
  },
  {
    "compound": "N=C(N)c1ccc(OCCCCCCOc2ccc(C(=N)N)cc2)cc1 [Example 20, hexamidine, reference compound]",
    "assayedTarget": "Pneumocystis carinii",
    "unitDescriptor": "animals",
    "valueReported": 0
  },
  {
    "compound": "N=C(N)c1ccc(NCCCNc2ccc(C(=N)N)cc2N)c(N)c1 [Example 36]",
    "assayedTarget": "Pneumocystis carinii",
    "unitDescriptor": "animals",
    "valueReported": 0
  }
]

----------
- Tested on: Pneumocystis carinii
- assayProtocol: Treatment of Pneumocystis carinii pneumonia in Sprague-Dawley rats (extent of disease by histologic score)
- Assay type: in vivo, male Sprague-Dawley rats
- conditionsUsed: Table XII composite, 10 mg/kg; 2 = scattered cysts, 5-10% of lung involved
measuredEndpoint: Extent of disease by histologic score (combined): number of animals in scoring group 2

[
  {
    "compound": "N=C(N)c1ccc(OCCCCCOc2ccc(C(=N)N)cc2)cc1 [Example 12, Pentamidine, reference compound]",
    "assayedTarget": "Pneumocystis carinii",
    "valueReported": "12 animals"
  },
  {
    "compound": "N=C(N)c1ccc(OCCCCOc2ccc(C(=N)N)cc2N)c(N)c1 [Example 10]",
    "assayedTarget": "Pneumocystis carinii",
    "valueReported": "1 animals"
  },
  {
    "compound": "N=C(N)c1ccc(OCCCOc2ccc(C(=N)N)cc2N)c(N)c1 [Example 5]",
    "assayedTarget": "Pneumocystis carinii",
    "valueReported": "1 animals"
  },
  {
    "compound": "N=C(N)c1ccc(OCCCOc2ccc(C(=N)N)cc2)cc1 [Example 4]",
    "assayedTarget": "Pneumocystis carinii",
    "valueReported": "1 animals"
  },
  {
    "compound": "N=C(N)c1ccc(NCCCCCNc2ccc(C(=N)N)cc2)cc1 [Example 17]",
    "assayedTarget": "Pneumocystis carinii",
    "valueReported": "3 animals"
  }
]
